Species: Homo sapiens
Assay: Hepatic clearance in human
Settings: in vivo
test readout: CL (mL/min/kg)
I only need the number, in mL/min/kg, no unit after it.

Dear colleague, I am looking for the recorded CL of the following compound: c1ccc(C2(N3CCCCC3)CCCCC2)cc1 [PHENCYCLIDINE]
4.3

Dear colleague, I am looking for the recorded CL of the following compound: CC(=O)Nc1ccc(OCC(O)CNC(C)C)cc1 (stereo not given) [PRACTOLOL]
0.3

Dear colleague, I am looking for the recorded CL of the following compound: CN(C)c1ccc(O)c2c1C[C@H]1C[C@H]3[C@H](N(C)C)C(O)=C(C(N)=O)C(=O)[C@@]3(O)C(O)=C1C2=O [MINOCYCLINE]
1.1

Dear colleague, I am looking for the recorded CL of the following compound: Cc1[nH]c(=O)c(C#N)cc1-c1ccncc1 [MILRINONE]
1.2

Dear colleague, I am looking for the recorded CL of the following compound: O=P1(NCCCl)OCCCN1CCCl (stereo not given) [IFOSFAMIDE]
0.5

Dear colleague, I am looking for the recorded CL of the following compound: O=c1n(CCCN2CCN(c3cccc(Cl)c3)CC2)nc2ccccn12 [TRAZODONE]
1.4

Dear colleague, I am looking for the recorded CL of the following compound: COc1ccc([C@@H]2Sc3ccccc3N(CCN(C)C)C(=O)[C@@H]2OC(C)=O)cc1 [DILTIAZEM]
3.8

Dear colleague, I am looking for the recorded CL of the following compound: `Cc1cccc(C)c1NC(=O)NCCCNC(C)C`
2.2

Dear colleague, I am looking for the recorded CL of the following compound: Cc1ncc([N+](=O)[O-])n1CCO [METRONIDAZOLE]
0.7

Dear colleague, I am looking for the recorded CL of the following compound: Clc1ccc2nsnc2c1NC1=NCCN1 [TIZANIDINE]
10.7

###

I'd appreciate it if you could supply CL renal values for the items below.
Test: clinical
Details: human, in vivo
I only need the number, in mL/min/kg, no unit after it.

Dear colleague, I am looking for the recorded CL renal of the following compound: C[C@H]1O[C@H](O[C@H]2[C@H](O)[C@@H](O)[C@@H](O[C@H]3[C@H](O)[C@@H](O)C(O)O[C@@H]3CO)O[C@@H]2CO)[C@H](O)[C@@H](O)[C@@H]1N[C@H]1C=C(CO)[C@@H](O)[C@H](O)[C@H]1O (some centres not stated)
2.1

Dear colleague, I am looking for the recorded CL renal of the following compound: `Cc1ccc(C(=O)Nc2ccc(S(=O)(=O)O)c3cc(S(=O)(=O)O)cc(S(=O)(=O)O)c23)cc1NC(=O)c1cccc(NC(=O)Nc2cccc(C(=O)Nc3cc(C(=O)Nc4ccc(S(=O)(=O)O)c5cc(S(=O)(=O)O)cc(S(=O)(=O)O)c45)ccc3C)c2)c1`
0.0046

Dear colleague, I am looking for the recorded CL renal of the following compound: CCCCCN(CCCOC)C(=O)C(CCC(=O)O)NC(=O)c1ccc(Cl)c(Cl)c1 (configuration not stated) [LOXIGLUMIDE]
0.022

Dear colleague, I am looking for the recorded CL renal of the following compound: `CS(=O)(=O)OCCCCOS(C)(=O)=O`
0.024

Dear colleague, I am looking for the recorded CL renal of the following compound: `CC[C@H]1OC(=O)[C@H](C)[C@@H](O[C@H]2C[C@@](C)(OC)[C@@H](O)[C@H](C)O2)[C@H](C)[C@@H](O[C@@H]2O[C@H](C)C[C@H](N(C)C)[C@H]2O)[C@](C)(O)C[C@@H](C)CN(C)[C@H](C)[C@@H](O)[C@]1(C)O`
0.5

Dear colleague, I am looking for the recorded CL renal of the following compound: `CO/N=C(\C(=O)N[C@@H]1C(=O)N2C(C(=O)O)=C(CSc3nc(=O)c(=O)[nH]n3C)CS[C@H]12)c1csc(N)n1`
0.1

Dear colleague, I am looking for the recorded CL renal of the following compound: CC(=O)CC(c1ccccc1)c1c(O)c2ccccc2oc1=O (configuration not stated)
0.0011

Dear colleague, I am looking for the recorded CL renal of the following compound: `O=C1Cc2cc(CCN3CCN(c4nsc5ccccc45)CC3)c(Cl)cc2N1`
0.1

Dear colleague, I am looking for the recorded CL renal of the following compound: `CCOC(=O)c1ncn2c1CN(C)C(=O)c1cc(F)ccc1-2`
0.032

Dear colleague, I am looking for the recorded CL renal of the following compound: CC1CCCC(C)N1CCCC(O)(c1ccccc1)c1ccccn1 (configuration not stated)
0.7

Dear colleague, I am looking for the recorded CL renal of the following compound: `Cc1onc(-c2ccccc2Cl)c1C(=O)N[C@@H]1C(=O)N2[C@@H]1SC(C)(C)[C@@H]2C(=O)O`
1

Dear colleague, I am looking for the recorded CL renal of the following compound: `CCc1nn(CCCN2CCN(c3cccc(Cl)c3)CC2)c(=O)n1CCOc1ccccc1`
0.4

Dear colleague, I am looking for the recorded CL renal of the following compound: `CCC[C@@H]1C[C@@H](C(=O)N[C@@H]([C@H]2O[C@H](SC)[C@H](O)[C@@H](O)[C@H]2O)[C@H](C)Cl)N(C)C1`
0.6

Dear colleague, I am looking for the recorded CL renal of the following compound: CN1CCN2c3ncccc3Cc3ccccc3C2C1 (configuration not stated)
0.3

Dear colleague, I am looking for the recorded CL renal of the following compound: CCCCNc1cc(C(=O)O)cc(S(N)(=O)=O)c1Oc1ccccc1 [BUMETANIDE]
1.5

Dear colleague, I am looking for the recorded CL renal of the following compound: `Cc1cc(NC(=O)C2=C(O)c3ccccc3S(=O)(=O)N2C)no1`
0.0014

Dear colleague, I am looking for the recorded CL renal of the following compound: `Cn1c(=O)c2[nH]cnc2n(C)c1=O.O`
0.1

Dear colleague, I am looking for the recorded CL renal of the following compound: CCCCNC(=O)NS(=O)(=O)c1ccc(C)cc1 [TOLBUTAMIDE]
0.0002

Dear colleague, I am looking for the recorded CL renal of the following compound: `CC[C@H]1OC(=O)[C@H](C)[C@@H](O[C@H]2C[C@@](C)(OC)[C@@H](O)[C@H](C)O2)[C@H](C)[C@@H](O[C@@H]2O[C@H](C)C[C@H](N(C)C)[C@H]2O)[C@](C)(O)C[C@@H](C)C(=O)[C@H](C)[C@@H](O)[C@]1(C)O`
0.3

Dear colleague, I am looking for the recorded CL renal of the following compound: O=P1(N(CCCl)CCCl)NCCCO1 (configuration not stated) [CYCLOPHOSPHAMIDE ANHYDROUS]
0.1

Dear colleague, I am looking for the recorded CL renal of the following compound: `CN(C)CCCN1c2ccccc2Sc2ccc(Cl)cc21`
0.2

Dear colleague, I am looking for the recorded CL renal of the following compound: COc1ccc(C(CN(C)C)C2(O)CCCCC2)cc1 (configuration not stated)
0.6

Dear colleague, I am looking for the recorded CL renal of the following compound: `O=C1CN=C(c2ccccc2Cl)c2cc([N+](=O)[O-])ccc2N1`
0.0088

Dear colleague, I am looking for the recorded CL renal of the following compound: COCCc1ccc(OCC(O)CNC(C)C)cc1 (configuration not stated)
0.7

Dear colleague, I am looking for the recorded CL renal of the following compound: `CCCC(CCC)C(=O)O`
0.0029

Dear colleague, I am looking for the recorded CL renal of the following compound: O=C(NCCN1CCOCC1)c1ccc(Cl)cc1 [MOCLOBEMIDE]
0.1

Dear colleague, I am looking for the recorded CL renal of the following compound: `CCCCC(=O)N(Cc1ccc(-c2ccccc2-c2nnn[nH]2)cc1)[C@H](C(=O)O)C(C)C`
0.1

Dear colleague, I am looking for the recorded CL renal of the following compound: CN(C)CCCC1(c2ccc(F)cc2)OCc2cc(C#N)ccc21 (configuration not stated)
0.5

Dear colleague, I am looking for the recorded CL renal of the following compound: `Cc1nc2n(c(=O)c1CCN1CCC(c3noc4cc(F)ccc34)CC1)CCCC2`
0.2

Dear colleague, I am looking for the recorded CL renal of the following compound: O=P1(NCCCl)OCCCN1CCCl (configuration not stated) [IFOSFAMIDE]
0.6

Dear colleague, I am looking for the recorded CL renal of the following compound: `COc1ccccc1N1CCN(CCCNc2cc(=O)n(C)c(=O)n2C)CC1`
0.5

Dear colleague, I am looking for the recorded CL renal of the following compound: `Cn1c(=O)c2c(ncn2C)n(C)c1=O`
0.017

###

I'd appreciate it if you could supply Fu values for the items below.
System: Plasma
Assay: Fraction unbound in human plasma
Reply with the value as a number alone.

Dear colleague, I am looking for the recorded Fu of the following molecule: O=C1C(O)=C([C@H]2CC[C@H](c3ccc(Cl)cc3)CC2)C(=O)c2ccccc21 [ATOVAQUONE]
0.001

Dear colleague, I am looking for the recorded Fu of the following molecule: CC(C)N(CCC(C(N)=O)(c1ccccc1)c1ccccn1)C(C)C (centres undefined) [DISOPYRAMIDE]
0.16

Dear colleague, I am looking for the recorded Fu of the following molecule: CO/N=C(\C(=O)N[C@@H]1C(=O)N2C(C(=O)O)=C(CSc3nc(=O)c(=O)[nH]n3C)CS[C@H]12)c1csc(N)n1 [CEFTRIAXONE]
0.052

Dear colleague, I am looking for the recorded Fu of the following molecule: COc1ccc2c(c1)c(CC(=O)O)c(C)n2C(=O)c1ccc(Cl)cc1 [INDOMETHACIN]
0.01
